These entries and their values trace back to paper PMC12223310.

Tested on: Enterococcus faecium
Format: cell-based, Enterococcus faecium ATCC 19434
Experimental: Antimicrobial activities were determined by the microtiter broth dilution method recommended by the National Committee of Laboratory Safety and Standards (NCLSS), adapted for AMPs (Wiegand et al, [2008]). Briefly, overnight bacterial cell cultures were brought to an exponential growth state (OD600 = 0.4) in MH broth and diluted to a final concentration of 5 × 10^5 CFU/mL. […]
Ends that are not written are not given here.
Task for the reader: assign each of the following substances its reported MBC E. faecium.
One number for each entry, in µM.

HNLFRKLTHRLFRRNFGYTLRSV-NH2 [HBP-5] :: 6.3

Lookup: Find the recorded MBC E. faecium belonging to GWKDKKSYRWFLQHRPQVGYIRVRFY-NH2 [HBP-4] and report it.
Found: 50

====

test: in vitro; type: cell-based; settings: human, MRC-5 cells
Ends that are not written are not given here.
parameter: CC50 at 4 h (µM)
Give bare numbers, in µM.

State the recorded CC50 at 4 h for every item in the following list.
1. GWKDKKSYRWFLQHRPQVGYIRVRFY-NH2 [HBP-4]
2. HNLFRKLTHRLFRRNFGYTLRSV-NH2 [HBP-5]

Found:
35
69

Lookup: What value of CC50 at 4 h has been reported for the following substance? HNLFRKLTHRLFRRNFGYTL-NH2 [HBP-5 [1–20]]
Found: 63

====

tested on: Staphylococcus aureus; format: cell-based, Staphylococcus aureus ATCC 12600
Ends that are not written are not given here.
Give measured MIC S. aureus for each item. Keep answers brief.
Give bare numbers, in µM.

Example cases with answers are listed next.
HNLFRKLTAALFRANFGYTLRSV-NH2 [ΔCPC’] :: 6.3
GWKDKKSYRWFLQHRPQVGYIRVRFY-NH2 [HBP-4] :: 3.1
HNLFRKLTHRLFRQNFGYTLRSV-NH2 [Peptide R14] :: 6.3
FRFKRKLPKYLLF-NH2 [HBP-3] :: 25
RWHLTHRPKTGYIRVLVH-NH2 [HBP-1] :: 50
HNLFRKLTHQLFRRNFGYTLRSV-NH2 [Peptide R10] :: 6.3
HNLFRKLTHRLFRRNFGYTL-NH2 [HBP-5 [1–20]] :: 6.3

Here is another substance to look at.
Lookup: Entry HNLFRKLTHRLFRRNFGYTLRSV-NH2 [HBP-5] : reported MIC S. aureus = ?
Found: 6.3

====

system: Escherichia coli; format: cell-based, Escherichia coli BW25113
Ends that are not written are not given here.
Hi there, I'd appreciate the recorded MIC E. coli for every entry that follows.
Answers are plain numbers, in µM.

HNLFRKLTHRLFRQNFGYTLRSV-NH2 [Peptide R14] :: 0.4
RWHLTHRPKTGYIRVLVH-NH2 [HBP-1] :: 1.6
HNLFRKLTHQLFRRNFGYTLRSV-NH2 [Peptide R10] :: 0.4
FRFKRKLPKYLLF-NH2 [HBP-3] :: 3.1

I need MIC E. coli for every entry listed below, if you could help.
1. RFYLSKKKWVMVP-NH2 [HBP-2]
2. HNLFRKLTHRLFRRNFGYTL-NH2 [HBP-5 [1–20]]
3. GWKDKKSYRWFLQHRPQVGYIRVRFY-NH2 [HBP-4]
4. HNLFRKLTAALFRANFGYTLRSV-NH2 [ΔCPC’]
5. HNLFRKLTHRLFRRNFGYTLRSV-NH2 [HBP-5]

Found:
1. 12.5
2. 0.4
3. 0.2
4. 1.6
5. 0.4
